Hello, the source for this data is ChEMBL document CHEMBL2424615, in case you need it.

- MEASUREMENT_PROTOCOL: AUC in Wistar rat at 1 mg/kg, iv administered as bolus dose
- Assay type: ADME, organism-based
- Design: dose 1 mg/kg, route intravenous
- CONDITION_DESCRIPTION: plasma
RECORDED_ENDPOINT: AUC (µg·h/mL)
Answer format: numeric, µg·h/mL implied, no suffix.

Lab note: measured AUC of COc1cnc2cccc([C@@H](O)[C@H](O)[C@@H]3CC[C@@H](NCc4ccc5c(n4)NC(=O)CS5)CO3)c2n1 was 0.313

Recorded result, COc1ccc2nccc(CC[C@@H]3CC[C@@H](NCc4ccc5c(n4)NC(=O)CS5)CO3)c2n1 , AUC: 0.463

====

- MEASUREMENT_PROTOCOL: Intrinsic clearance in rat liver microsomes at 1 uM
- Format: ADME, Microsome
- CONDITION_DESCRIPTION: read-out: CLH
RECORDED_ENDPOINT: microsomal CLint at 1 µM (µL/min/mg)
Please reply with the bare figure in µL/min/mg and do not write the unit itself.

Query COc1cnc2cccc([C@@H](O)[C@H](O)[C@@H]3CC[C@@H](NCc4ccc5c(n4)NC(=O)CS5)CO3)c2n1 yields microsomal CLint at 1 µM of 92

Given item COc1ccc2ncc(F)c([C@@H](O)[C@H](O)[C@@H]3CC[C@@H](NCc4cc5c(cn4)OCCS5)CO3)c2n1 , the value recorded as its microsomal CLint at 1 µM is 344

====

For each of the molecules below, state its clearance.
- MEASUREMENT_PROTOCOL: Clearance in Wistar rat at 1 mg/kg, iv administered as bolus dose
- Type: ADME, organism-based
- Set-up: dose 1 mg/kg, route intravenous
- CONDITION_DESCRIPTION: in vivo
// note: answer is a bare numeric in mL/min/kg

Lab book: clearance of COc1ccc2nccc(CC[C@@H]3CC[C@@H](NCc4ccc5c(n4)NC(=O)CS5)CO3)c2n1 noted as 36

Entry COc1cnc2cccc([C@@H](O)[C@H](O)[C@@H]3CC[C@@H](NCc4ccc5c(n4)NC(=O)CS5)CO3)c2n1 — recorded clearance = 53

====

Provide the recorded inhibition at 0.05 h, 10 µM for the entries that follow.
- TGT: hERG (KCNH2) (Homo sapiens)
- MEASUREMENT_PROTOCOL: Inhibition of human ERG expressed in CHO cells at 10 uM after 3 mins by patch clamp assay relative to control
- Format: cell-based
- CONDITION_DESCRIPTION: CHO cells that express human ERG
Field format: number, assumed %, no unit text.

For the molecule COc1ccc2nccc([C@@H](O)[C@H](O)[C@@H]3CC[C@@H](NCc4ccc5c(n4)NC(=O)CS5)CO3)c2c1 , the measured inhibition at 0.05 h, 10 µM on hERG (KCNH2) (Homo sapiens) was 24

Given the molecule COc1ccc2ncc(F)c([C@@H](O)[C@H](O)[C@@H]3CC[C@@H](NCc4ccc5c(n4)NC(=O)CS5)CO3)c2c1 and test system hERG (KCNH2) (Homo sapiens), the measured inhibition at 0.05 h, 10 µM is 15

Short answer on hERG (KCNH2) (Homo sapiens) for COc1ccc2ncc(F)c([C@@H](O)[C@H](O)[C@@H]3CC[C@@H](NCc4cc5c(nn4)OCCS5)CO3)c2n1 , inhibition at 0.05 h, 10 µM: 3

Query COc1ccc2nccc(OC[C@@H]3CC[C@@H](NCc4ccc5c(n4)NC(=O)CS5)CO3)c2n1 on hERG (KCNH2) (Homo sapiens); inhibition at 0.05 h, 10 µM returned: 70

Record COc1cnc2cccc([C@@H](O)[C@H](O)[C@@H]3CC[C@@H](NCc4ccc5c(n4)NC(=O)CS5)CO3)c2c1 has hERG (KCNH2) (Homo sapiens) inhibition at 0.05 h, 10 µM equal to 17

Record COc1cnc2ccc(F)c([C@@H](O)[C@H](O)[C@@H]3CC[C@@H](NCc4cc5c(cn4)OCCS5)CO3)c2n1 ; system hERG (KCNH2) (Homo sapiens); inhibition at 0.05 h, 10 µM = 33

Item COc1ccc2nccc(C(O)C[C@@H]3CC[C@@H](NCc4cc5c(cn4)OCCO5)CO3)c2n1 (mixture of isomers) ; assay system hERG (KCNH2) (Homo sapiens); inhibition at 0.05 h, 10 µM reported as 66

# COc1ccc2nccc(C(O)C[C@@H]3CC[C@@H](NCc4ccc5c(n4)NC(=O)CS5)CO3)c2n1 (mixture of isomers) with hERG (KCNH2) (Homo sapiens): inhibition at 0.05 h, 10 µM is 99

Tested on hERG (KCNH2) (Homo sapiens): COc1ccc2ncc(F)c([C@@H](O)[C@H](O)[C@@H]3CC[C@@H](NCc4cc5c(nn4)OCCO5)CO3)c2n1 . Observed inhibition at 0.05 h, 10 µM: 7

Record for COc1cnc2ccc(F)c([C@@H](O)[C@H](O)[C@@H]3CC[C@@H](NCc4cc5c(cn4)OCCO5)CO3)c2n1 under target or system hERG (KCNH2) (Homo sapiens): inhibition at 0.05 h, 10 µM reported as 11

Record COc1ccc2nccc([C@H](O)[C@@H](O)[C@H]3CC[C@H](NCc4ccc5c(n4)NC(=O)CS5)CO3)c2n1 / hERG (KCNH2) (Homo sapiens), inhibition at 0.05 h, 10 µM recorded as 70

The observed inhibition at 0.05 h, 10 µM for COc1cc(F)c2nccc([C@@H](O)[C@H](O)[C@@H]3CC[C@@H](NCc4ccc5c(n4)NC(=O)CS5)CO3)c2c1 when tested with hERG (KCNH2) (Homo sapiens) stands at 20

COc1ccc2nccc(NC(=O)[C@@H]3CC[C@@H](NCc4cc5c(cn4)OCCO5)CO3)c2n1 on hERG (KCNH2) (Homo sapiens) gives inhibition at 0.05 h, 10 µM = 71

# lookup: COc1ccc2nccc([C@@H](O)[C@H](O)[C@@H]3CC[C@@H](NCc4cc5c(cn4)OCCO5)CO3)c2n1 on hERG (KCNH2) (Homo sapiens), inhibition at 0.05 h, 10 µM = 27

Form: item COc1ccc2nccc(/C=C/[C@@H]3CC[C@@H](NCc4cc5c(cn4)OCCO5)CO3)c2n1 ; test system hERG (KCNH2) (Homo sapiens); inhibition at 0.05 h, 10 µM: 88

Let me check: COc1ccc2ncc(F)c([C@@H](O)[C@H](O)[C@@H]3CC[C@@H](NCc4cc5c(cn4)OCCO5)CO3)c2n1 , system hERG (KCNH2) (Homo sapiens), measured inhibition at 0.05 h, 10 µM is 10

So the reported inhibition at 0.05 h, 10 µM for COc1ccc2cccc([C@@H](O)[C@H](O)[C@@H]3CC[C@@H](NCc4ccc5c(n4)NC(=O)CS5)CO3)c2n1 , on hERG (KCNH2) (Homo sapiens), turned out to be 72

Assay hERG (KCNH2) (Homo sapiens), sample COc1ccc2ncc(F)c([C@@H](O)[C@H](O)[C@@H]3CC[C@@H](NCc4cc5c(cn4)OCCS5)CO3)c2n1 , inhibition at 0.05 h, 10 µM read: 19

Entry COc1ccc2nccc(CC[C@@H]3CC[C@@H](NCc4cc5c(cn4)OCCO5)CO3)c2n1 , tested on hERG (KCNH2) (Homo sapiens), has a reported inhibition at 0.05 h, 10 µM of 82

Item: COc1ccc2nccc(OC[C@@H]3CC[C@@H](NCc4cc5c(cn4)OCCO5)CO3)c2n1 | System: hERG (KCNH2) (Homo sapiens) | inhibition at 0.05 h, 10 µM: 19

Simply: COc1cnc2cccc([C@@H](O)[C@H](O)[C@@H]3CC[C@@H](NCc4ccc5c(n4)NC(=O)CS5)CO3)c2n1 , hERG (KCNH2) (Homo sapiens), inhibition at 0.05 h, 10 µM = 55

So the reported inhibition at 0.05 h, 10 µM for COc1cnc2ccc(F)c([C@@H](O)[C@H](O)[C@@H]3CC[C@@H](NCc4ccc5c(n4)NC(=O)CS5)CO3)c2n1 , on hERG (KCNH2) (Homo sapiens), turned out to be 44

inhibition at 0.05 h, 10 µM on hERG (KCNH2) (Homo sapiens) for COc1ccc2nccc([C@H](O)[C@@H](O)[C@@H]3CC[C@@H](NCc4ccc5c(n4)NC(=O)CS5)CO3)c2n1 is 93

Kindly note: hERG (KCNH2) (Homo sapiens), COc1ccc2nccc([C@@H](O)[C@H](O)[C@H]3CC[C@H](NCc4ccc5c(n4)NC(=O)CS5)CO3)c2n1 , inhibition at 0.05 h, 10 µM value reported: 45

Measured inhibition at 0.05 h, 10 µM (hERG (KCNH2) (Homo sapiens)), entry COc1ccc2nccc([C@@H](O)[C@H](O)[C@@H]3CC[C@@H](NCc4ccc5c(n4)NC(=O)CS5)CO3)c2n1 : 36
